- target_or_system: Human CD73 (amino acid residues 27-549) (Homo sapiens, UniProt P21589)
- Sequence (P21589 27-549): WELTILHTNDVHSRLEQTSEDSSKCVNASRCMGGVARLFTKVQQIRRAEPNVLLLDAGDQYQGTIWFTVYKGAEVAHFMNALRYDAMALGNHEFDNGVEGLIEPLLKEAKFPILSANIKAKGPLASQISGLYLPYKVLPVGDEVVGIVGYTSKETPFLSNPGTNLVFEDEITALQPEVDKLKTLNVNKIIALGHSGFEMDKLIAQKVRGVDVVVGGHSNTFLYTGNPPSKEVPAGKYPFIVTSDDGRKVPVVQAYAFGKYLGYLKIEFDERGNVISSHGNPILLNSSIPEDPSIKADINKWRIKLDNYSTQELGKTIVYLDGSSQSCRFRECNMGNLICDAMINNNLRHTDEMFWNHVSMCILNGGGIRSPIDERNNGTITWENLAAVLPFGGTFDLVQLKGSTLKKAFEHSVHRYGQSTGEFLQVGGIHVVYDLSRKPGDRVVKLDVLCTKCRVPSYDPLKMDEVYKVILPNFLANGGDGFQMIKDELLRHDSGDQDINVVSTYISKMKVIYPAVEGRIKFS
pIC50: −log10 of the molar value.
reported_endpoint: pIC50

- compound: "O=C(NC1CCN(C(=O)c2cccnc2)CC1)O[C@@H]1CCN(c2cn[nH]c(=O)c2Cl)C1 [P-0416]"
  target_or_system: "Human CD73 (amino acid residues 27-549) (Homo sapiens, UniProt P21589)"
  reported_endpoint: "pIC50"
  value_observed: "5.00 to 9.00"
- compound: "CS(=O)(=O)NC1CCC(NC(=O)N[C@@H]2CCN(c3cn[nH]c(=O)c3Cl)C2)CC1 (some centres unmarked) [P-0091]"
  target_or_system: "Human CD73 (amino acid residues 27-549) (Homo sapiens, UniProt P21589)"
  reported_endpoint: "pIC50"
  value_observed: "5.00 to 9.00"
- compound: "Cn1cc(S(=O)(=O)N[C@H]2CC[C@H](NC(=O)O[C@@H]3CCN(c4cn[nH]c(=O)c4Cl)C3)CC2)cn1 [P-0255]"
  target_or_system: "Human CD73 (amino acid residues 27-549) (Homo sapiens, UniProt P21589)"
  reported_endpoint: "pIC50"
  value_observed: "5.00 to 9.00"
- compound: "O=C(NC1CC(F)(F)C1)O[C@@H]1CCN(c2cnn(CCO)c(=O)c2Cl)C1 [P-0431]"
  target_or_system: "Human CD73 (amino acid residues 27-549) (Homo sapiens, UniProt P21589)"
  reported_endpoint: "pIC50"
  value_observed: "5.00 to 9.00"
- compound: "CCOC(=O)CCNC(=O)N[C@@H]1CCN(c2cn[nH]c(=O)c2Cl)C1 [P-0026]"
  target_or_system: "Human CD73 (amino acid residues 27-549) (Homo sapiens, UniProt P21589)"
  reported_endpoint: "pIC50"
  value_observed: "4.00 to 5.00"
- compound: "CS(=O)(=O)N[C@H]1CC[C@H](NC(=O)O[C@@H]2CCN(c3cn[nH]c(=O)c3C#N)C2)CC1 [P-0144]"
  target_or_system: "Human CD73 (amino acid residues 27-549) (Homo sapiens, UniProt P21589)"
  reported_endpoint: "pIC50"
  value_observed: "5.00 to 9.00"
- compound: "CCc1c(N2CC[C@@H](OC(=O)NC3CCC(F)(F)CC3)C2)cn[nH]c1=O [P-0378]"
  target_or_system: "Human CD73 (amino acid residues 27-549) (Homo sapiens, UniProt P21589)"
  reported_endpoint: "pIC50"
  value_observed: "5.00 to 9.00"

State its pIC50 for this compound: O=C(O)Cn1ncc(N2CC[C@@H](OC(=O)NC3CCC(F)(F)CC3)C2)c(Cl)c1=O [P-0282]
5.00 to 9.00

====

- target_or_system: human CD73 (Homo sapiens)
- procedure_summary: Inhibitor activity against CD73 in cell based assay (CD73 expressing CHO-K1 cells)
- applied_conditions: CHO-K1 cells expressing human CD73, 150 μM AMP, 4 hours of incubation; read-out: CHO-K1 CELL VARIANT: CD73 IC50
Overview of reported IC50 across a group of compounds:

The examples below pair each entry with its known result.
- compound: "NCC(=O)N1CCC(NC(=O)O[C@@H]2CCN(c3cn[nH]c(=O)c3Cl)C2)CC1 [P-0159]"
  target_or_system: "human CD73 (Homo sapiens)"
  value_observed: "0.001 to 10 µM"
- compound: "COc1ccc(S(=O)(=O)N[C@H]2CC[C@H](NC(=O)O[C@@H]3CCN(c4cn[nH]c(=O)c4Cl)C3)CC2)cc1 [P-0251]"
  target_or_system: "human CD73 (Homo sapiens)"
  value_observed: "0.001 to 10 µM"
- compound: "CC1(C)C(NC(=O)O[C@@H]2CCN(c3cn[nH]c(=O)c3Cl)C2)C1(C)C [P-0517]"
  target_or_system: "human CD73 (Homo sapiens)"
  value_observed: "0.001 to 10 µM"
- compound: "Cn1ncc(N2CC[C@@H](OC(=O)NC3CCC(F)(F)CC3)C2)c(Cl)c1=O [P-0202]"
  target_or_system: "human CD73 (Homo sapiens)"
  value_observed: "0.001 to 10 µM"
- compound: "O=C(NC12CCC(CC1)C2)O[C@@H]1CCN(c2cn[nH]c(=O)c2Cl)C1 [P-0349]"
  target_or_system: "human CD73 (Homo sapiens)"
  value_observed: "0.001 to 10 µM"

Name the recorded IC50 of the compound listed here: O=C(N[C@H]1CC[C@H](NS(=O)(=O)c2ccccc2F)C1)O[C@@H]1CCN(c2cn[nH]c(=O)c2Cl)C1 [P-0365]
0.001 to 10 µM

====

We begin with a simple list: items and their reported pIC50.
- target_or_system: human CD73 (Homo sapiens)
- Construct: expressed in transfected cells
- procedure_summary: Inhibitor activity against CD73 in cell based assay (CD73 expressing CHO-K1 cells)
- applied_conditions: CHO-K1 cells expressing human CD73, 150 μM AMP, 4 hours of incubation; read-out: CHO-K1 CELL VARIANT: CD73 IC50
pIC50: −log10 of the molar value.

Worked cases, pIC50 given:
- smi: "O=C(Nc1ccc(F)cc1)N[C@H]1C[C@H](NC(=O)O[C@@H]2CCN(c3cn[nH]c(=O)c3Cl)C2)C1"
  pIC50: "5.00 to 9.00"
- smi: "O=C(NC1CCN(C(=O)Nc2ccc(F)cc2F)CC1)O[C@@H]1CCN(c2cn[nH]c(=O)c2Cl)C1"
  pIC50: "5.00 to 9.00"
- smi: "O=C(N[C@H]1CC[C@H](O)CC1)O[C@@H]1CCN(c2cn[nH]c(=O)c2Cl)C1"
  pIC50: "5.00 to 9.00"

Tell me pIC50 reported for CCc1c(N2CC[C@@H](OC(=O)NC3CCC(F)(F)CC3)C2)cn[nH]c1=O
4.00 to 5.00

Please supply the value of reported pIC50 for the item CC(=O)N1CC[C@@H](NC(=O)O[C@@H]2CCN(c3cn[nH]c(=O)c3Cl)C2)C1
5.00 to 9.00

Specify measured pIC50 for O=C(CO)N[C@H]1CC[C@H](NC(=O)O[C@@H]2CCN(c3cn[nH]c(=O)c3Cl)C2)CC1 .
5.00 to 9.00

Hello, please tell me recorded pIC50 for this one: O=C(Nc1cccc(C(=O)O)c1)N[C@H]1CC[C@H](NC(=O)O[C@@H]2CCN(c3cn[nH]c(=O)c3Cl)C2)CC1
5.00 to 9.00

Please give measured pIC50 of the following entry: O=C(N[C@H]1CC[C@@H](C(=O)Nc2ccccc2)CC1)O[C@@H]1CCN(c2cn[nH]c(=O)c2Cl)C1
5.00 to 9.00

====

- target_or_system: UniProt P21589
- procedure_summary: Inhibitor activity against CD73 in cell based assay (CD73 expressing CHO-K1 cells)
- applied_conditions: CHO-K1 cells expressing human CD73, 150 μM AMP, 4 hours of incubation; read-out: CHO-K1 CELL VARIANT: CD73 IC50
reported_endpoint: IC50

Previously resolved entries follow.
- smi: "O=C(NC1CC1)N[C@H]1CC[C@H](NC(=O)O[C@@H]2CCN(c3cn[nH]c(=O)c3Cl)C2)CC1"
  target_or_system: "UniProt P21589"
  reported_endpoint: "IC50"
  value_observed: "0.001 to 10 µM"
- smi: "CCN(C)C(=O)[C@H]1CC[C@H](NC(=O)O[C@@H]2CCN(c3cn[nH]c(=O)c3Cl)C2)CC1"
  target_or_system: "UniProt P21589"
  reported_endpoint: "IC50"
  value_observed: "0.001 to 10 µM"
- smi: "Cc1noc(C)c1S(=O)(=O)N[C@H]1CC[C@H](NC(=O)O[C@@H]2CCN(c3cn[nH]c(=O)c3Cl)C2)CC1"
  target_or_system: "UniProt P21589"
  reported_endpoint: "IC50"
  value_observed: "0.001 to 10 µM"
- smi: "CC(C)(C)OC(=O)N1CCC(NC(=O)O[C@@H]2CCN(c3cn[nH]c(=O)c3Cl)C2)CC1"
  target_or_system: "UniProt P21589"
  reported_endpoint: "IC50"
  value_observed: "0.001 to 10 µM"
- smi: "CC(C)(O)Cn1ncc(N2CC[C@@H](OC(=O)NC3CCC(F)(F)CC3)C2)c(Cl)c1=O"
  target_or_system: "UniProt P21589"
  reported_endpoint: "IC50"
  value_observed: "10 to 100 µM"
- smi: "NC(=O)Cn1ncc(N2CC[C@@H](OC(=O)NC3CCC(F)(F)CC3)C2)c(Cl)c1=O"
  target_or_system: "UniProt P21589"
  reported_endpoint: "IC50"
  value_observed: "10 to 100 µM"
- smi: "NC(=O)N1CCC(NC(=O)O[C@@H]2CCN(c3cn[nH]c(=O)c3Cl)C2)CC1"
  target_or_system: "UniProt P21589"
  reported_endpoint: "IC50"
  value_observed: "0.001 to 10 µM"

// switching to the query molecule
// fetch IC50 given entry O=C(NC1CCN(C(=O)NC2CCCCC2)CC1)O[C@@H]1CCN(c2cn[nH]c(=O)c2Cl)C1
0.001 to 10 µM
